# Experiment summary: inhibitors of hydroxyurea-induced Chk1 phosphorylation, primary screen, imaging, HeLa, phospho-Chk1 nuclear intensity (AID 1187); further: test concentration not given here
# Condition label: hydroxyurea-induced phospho-Chk1 immunofluorescence imaging, higher = more signal
Quick list: z-score per entry.
Value type: z-score

- O=C(OCCF)C1=CCC(c2cccc(Cl)c2)O1 (centres undefined): 0.215
- COCCOC(=O)N1C(=O)[C@@]2(c3cc(C#CC4=CCCCC4)ccc31)[C@H](C(=O)N1CCc3cc(OC)c(OC)cc3C1)[C@H]1C(=O)O[C@H](c3ccccc3)[C@H](c3ccccc3)N1[C@@H]2c1ccccc1OCCO: 0.226
- Cc1ccc(S[C@]2(C(=O)NCC(C)C)CC(=O)N(Cc3ccccc3)[C@@H]2c2ccc(CO)cc2I)cc1: 0.556
- COC(=O)c1ccc(C(O)C2C=CC3C(=O)N(C)C(=O)C3N2NC(=O)OC(C)(C)C)o1 (centres undefined): -0.0828
